Where do these numbers come from? They come from patent US8173635B2.

Some compounds, each annotated with its measured Ki.
molecular target: PKC theta kinase (Homo sapiens); test: PKC theta kinase inhibition, coupled-enzyme NADH absorbance assay (Ki); assay type: biochemical; details: 240 μM ATP, 18 nM PKC theta, 30° C.; read-out: Ki PKC theta
Sequence (Q04759 whole entry): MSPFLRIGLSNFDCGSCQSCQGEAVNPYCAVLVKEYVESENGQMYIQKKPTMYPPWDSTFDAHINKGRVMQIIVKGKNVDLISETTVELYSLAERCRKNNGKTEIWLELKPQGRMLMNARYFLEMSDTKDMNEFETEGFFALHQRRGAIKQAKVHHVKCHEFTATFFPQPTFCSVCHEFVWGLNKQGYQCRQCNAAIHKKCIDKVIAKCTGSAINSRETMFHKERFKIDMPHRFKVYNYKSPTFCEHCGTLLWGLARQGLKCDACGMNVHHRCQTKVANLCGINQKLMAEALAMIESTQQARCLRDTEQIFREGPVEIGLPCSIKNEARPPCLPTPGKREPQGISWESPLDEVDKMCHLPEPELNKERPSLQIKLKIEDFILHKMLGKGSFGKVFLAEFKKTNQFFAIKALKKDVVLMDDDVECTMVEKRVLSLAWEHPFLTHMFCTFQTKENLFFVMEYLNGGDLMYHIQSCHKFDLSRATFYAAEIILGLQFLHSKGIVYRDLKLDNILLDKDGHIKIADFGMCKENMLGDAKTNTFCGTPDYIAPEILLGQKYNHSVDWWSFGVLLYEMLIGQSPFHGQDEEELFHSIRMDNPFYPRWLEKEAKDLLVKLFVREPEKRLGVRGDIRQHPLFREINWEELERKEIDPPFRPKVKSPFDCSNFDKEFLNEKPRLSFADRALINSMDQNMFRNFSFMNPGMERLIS

{"compound": "NCC1(c2cccc(-c3ccnc4[nH]nc(C(F)(F)F)c34)c2)CC1", "Ki": "< 50 nM"}
{"compound": "CC(C)(CN)c1cc(-c2ccccc2)cc(-c2ccnc3[nH]ncc23)c1", "Ki": "< 2800 nM"}
{"compound": "Cc1cc(-c2ccnc3[nH]ncc23)cc(C2(CN)CNC(=O)O2)c1 (stereo not shown)", "Ki": "< 50 nM"}
{"compound": "Cc1n[nH]c2nccc(-c3cc(F)cc(C4(CN)CCC4)c3)c12", "Ki": "< 50 nM"}
{"compound": "NCC1(c2cc(F)cc(-c3ccnc4[nH]ncc34)c2)CCC1", "Ki": "< 50 nM"}

Field: next compound
Returns the measured Ki for the input compound. Input: CCC(C)(CN)c1cccc(-c2ccnc3[nH]nc(C)c23)c1 (stereo not shown)
< 50 nM
